# measuredOn: pooled human IgG (human IgG1, 2, 3 and 4)
Enzyme Activity Endpoint Assay: IgG listing for selected proteins.
The reply should contain only the number, in ng/µL.

PRT-375 (protein) MSQTEDSESLQRLRDIEDFQAEKKKQNVVYTKWLDGVDVKDHDFRKIVDGNEAYYATPLLNGRGFYDINKDFNRDNDKCAAAVAANMFHYWLDRNRDNVDRFLRQNPEKHGIIELPDGQLKLSDFLNTYESDDGYRDKSKLFDFISENFNGPVWTDKLLDNYINGYAYNYKYGRLIEDSTKNTSKINFFKEVFNEKILTNNHSIRNQNELSVLLSEALYTGKAIGLSYGPAGTRHSLGHIISVWGADLDADGNVVAIYVTDSDDKKLTIGDERVGLKRYKISTDDEGRLRLTAYEETHNTGGQIRGLWTLDTGKQAWADYFDKTEQTGTDQAEQ; 0

Query: Identify measured Enzyme Activity Endpoint Assay: IgG corresponding to PRT-399 (protein) MVTSVWTKGVTPPADFTQGEDVFHAPYVANQGWYDITKTFNGKDDLLCGAATAGNMLHWWFDQNKEYIEAYLKKHPEKQKIMFGDQELLDVRKAINTKGSQKNSELFNYFRDKAFPNLSARRLGVMPDLVLDMFINGYYLNVTKTQTTDVNRTYQEKDKRGGIFDAVFTRGDQSKLLTSRHDFKEKGLKEISDLIKQELTEGKALGLSHTYANVRINHVINLWGADFDSDGNLKAIYVTDSDSNASIGMKKYVVGVNSAGKVAISAKEIKEDNIGAQVLGLFTLSTGQDIWNQTN
Response: 1580
